All figures here come from ChEMBL document CHEMBL1126065.

List of inhibition values.
# subject.of.test: Histamine H1 receptor (Cavia porcellus) (UniProt P31389)
# Sequence (P31389 whole entry): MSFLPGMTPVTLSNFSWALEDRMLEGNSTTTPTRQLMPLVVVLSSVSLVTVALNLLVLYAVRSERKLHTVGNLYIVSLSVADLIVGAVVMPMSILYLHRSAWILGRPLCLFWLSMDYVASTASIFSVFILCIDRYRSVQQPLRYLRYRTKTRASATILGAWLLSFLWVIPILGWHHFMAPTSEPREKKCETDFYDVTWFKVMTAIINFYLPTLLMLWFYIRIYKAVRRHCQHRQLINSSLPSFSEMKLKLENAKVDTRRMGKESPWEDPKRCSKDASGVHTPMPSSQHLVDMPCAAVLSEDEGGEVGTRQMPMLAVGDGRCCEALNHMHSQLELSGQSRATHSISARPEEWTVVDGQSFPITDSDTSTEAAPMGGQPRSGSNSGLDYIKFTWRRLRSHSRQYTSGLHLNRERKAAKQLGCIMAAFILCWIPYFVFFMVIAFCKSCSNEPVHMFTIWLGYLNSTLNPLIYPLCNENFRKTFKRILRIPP
# experiment.notes: The compound was tested in vitro for binding affinity against histamine H1 receptor from guinea pig cerebellum, using [3H]pyrilamine as radioligand at 0.1 uM
# Type: tissue-based
Record the value in %, omitting the unit from your answer.

# smiles.record, value.unit, inhibition
rows = [
    ("CN(C)CC/C=C(/c1ccccc1)c1cccc(C(=O)O)c1", "%", 10),
    ("CC(C)O.O=C(O)c1ccc2c(c1)/C(=C\\CCN1CCOCC1)c1ccccc1CO2", "%", 24),
    ("CN1CCN(C/C=C2\\c3ccccc3COc3ccc(C(=O)O)cc32)CC1.O=C(O)/C=C/C(=O)O", "%", 0),
    ("O=C(O)/C=C/C(=O)O.O=C(O)c1ccc2c(c1)/C(=C/CN1CCOCC1)c1ccccc1CO2", "%", 19),
    ("O=C(O)/C=C/C(=O)O.O=C(O)c1ccc2c(c1)/C(=C/CN1CCSCC1)c1ccccc1CO2", "%", 30),
]

Proceed to the following item.
GET /values?readout=inhibition&item= CN1CCN(C/C=C2\c3ccccc3COc3ccc(CC(=O)O)cc32)CC1.O=C(O)/C=C/C(=O)O 29

----------
# subject.of.test: Muscarinic acetylcholine receptor M1 (Rattus norvegicus)
# Sequence (whole entry): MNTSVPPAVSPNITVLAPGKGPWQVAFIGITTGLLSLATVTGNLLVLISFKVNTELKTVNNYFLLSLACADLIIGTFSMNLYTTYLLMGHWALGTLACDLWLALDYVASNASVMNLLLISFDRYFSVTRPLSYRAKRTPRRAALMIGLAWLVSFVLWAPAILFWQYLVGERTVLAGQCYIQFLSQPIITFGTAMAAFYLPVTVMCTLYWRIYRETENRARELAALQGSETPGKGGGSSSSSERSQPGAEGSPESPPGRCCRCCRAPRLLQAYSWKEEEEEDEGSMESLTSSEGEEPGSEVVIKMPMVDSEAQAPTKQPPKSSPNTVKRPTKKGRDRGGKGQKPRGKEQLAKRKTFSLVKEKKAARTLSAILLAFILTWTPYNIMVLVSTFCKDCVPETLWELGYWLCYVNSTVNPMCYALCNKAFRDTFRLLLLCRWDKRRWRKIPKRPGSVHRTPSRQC
# experiment.notes: The compound was tested in vitro for binding affinity against muscarinic acetylcholine Muscarinic acetylcholine receptor M1 from rat striatum, using [3H]quinuclidinyl benzilate as radioligand at 10 uM.
List of inhibition values.
Record the value in %, omitting the unit from your answer.

Look over these answered cases.
# compound, inhibition, %
measured = [
    ("CN(C)CCSC1c2ccccc2COc2ccc(C(=O)O)cc21.Cl (stereo unspecified)", 7),
    ("O=C(O)/C=C/C(=O)O.O=C(O)c1ccc2c(c1)/C(=C/CN1CCSCC1)c1ccccc1CO2", 3),
    ("O=C(O)/C=C/C(=O)O.O=C(O)c1ccc2c(c1)/C(=C/CN1CCOCC1)c1ccccc1CO2", 2),
    ("CN1CCN(C/C=C2\\c3ccccc3COc3ccc(CC(=O)O)cc32)CC1.O=C(O)/C=C/C(=O)O", 3),
    ("CN1CCN(C/C=C2\\c3ccccc3COc3ccc(C(=O)O)cc32)CC1.O=C(O)/C=C/C(=O)O", 2),
]

Proceed to the following item.
GET /values?readout=inhibition&item= CC(C)O.O=C(O)c1ccc2c(c1)/C(=C\CCN1CCOCC1)c1ccccc1CO2 -2
